# System: Enterobacter cloacae
# measurement.description: Compound was evaluated for antibacterial activity against Enterobacter cloacae P99.
# Type: functional

- query.smiles: "CC(C)(O/N=C(\\C(=O)N[C@@H]1C(=O)N2C(C(=O)[O-])=C(C[n+]3ccccc3)CS[C@H]12)c1csc(N)n1)C(=O)O"
  result.comparator: ">"
  MIC [µg/mL]: 100
- query.smiles: "CC(=O)N(O)CCO/N=C(\\C(=O)N[C@@H]1C(=O)N2C(C(=O)[O-])=C(C[n+]3cccc4c3CCC4)CS[C@H]12)c1csc(N)n1"
  result.comparator: "="
  MIC [µg/mL]: 25
- query.smiles: "CC(=O)N(O)CCO/N=C(\\C(=O)N[C@@H]1C(=O)N2C(C(=O)[O-])=C(CSc3cccc4[n+]3CCN4)CS[C@H]12)c1csc(N)n1"
  result.comparator: "="
  MIC [µg/mL]: 50

* * *

Examples of compounds with documented MIC follow.
# Test system: Enterobacter cloacae
# measurement.description: Compound was evaluated for antibacterial activity against Enterobacter cloacae P99.
# Format: functional

- query.smiles: "CC(=O)N(O)CCO/N=C(\\C(=O)N[C@@H]1C(=O)N2C(C(=O)[O-])=C(C[n+]3ccc(CN(O)C(C)=O)cc3)CS[C@H]12)c1csc(N)n1"
  assay.system: "Enterobacter cloacae"
  MIC: "50 µg/mL"
- query.smiles: "CC(=O)N(O)CCO/N=C(\\C(=O)N[C@@H]1C(=O)N2C(C(=O)[O-])=C(C[n+]3ccccc3)CS[C@H]12)c1csc(N)n1"
  assay.system: "Enterobacter cloacae"
  MIC: "25 µg/mL"
- query.smiles: "CC(=O)N(O)CCO/N=C(\\C(=O)N[C@@H]1C(=O)N2C(C(=O)O)=C(CSc3nc(C)c(CC(=O)O)s3)CS[C@H]12)c1csc(N)n1"
  assay.system: "Enterobacter cloacae"
  MIC: "50 µg/mL"

* * *

Examples of compounds with documented MIC follow.
# System: Pseudomonas aeruginosa
# measurement.description: Compound was evaluated for antibacterial activity against Pseudomonas aeruginosa 1771M.
# Assay type: functional
property.measured: MIC (µg/mL)

- compound: "CC(=O)N(O)CCO/N=C(\\C(=O)N[C@@H]1C(=O)N2C(C(=O)[O-])=C(C[n+]3ccc(CN(O)C(C)=O)cc3)CS[C@H]12)c1csc(N)n1"
  unit.abbrev: "µg/mL"
  val: 6.25
- compound: "CC(=O)N(O)CCO/N=C(\\C(=O)N[C@@H]1C(=O)N2C(C(=O)[O-])=C(CSc3cccc4[n+]3CCN4)CS[C@H]12)c1csc(N)n1"
  unit.abbrev: "µg/mL"
  val: 3.12
- compound: "CC(=O)N(O)CCO/N=C(\\C(=O)N[C@@H]1C(=O)N2C(C(=O)O)=C(CSc3nc(C)c(CC(=O)O)s3)CS[C@H]12)c1csc(N)n1"
  unit.abbrev: "µg/mL"
  val: 0.391
- compound: "CC(=O)N(O)CCO/N=C(\\C(=O)N[C@@H]1C(=O)N2C(C(=O)[O-])=C(C[n+]3cccc4c3CCC4)CS[C@H]12)c1csc(N)n1"
  unit.abbrev: "µg/mL"
  val: 0.781
- compound: "CC(C)(O/N=C(\\C(=O)N[C@@H]1C(=O)N2C(C(=O)[O-])=C(C[n+]3ccccc3)CS[C@H]12)c1csc(N)n1)C(=O)O [CEFTAZIDIME]"
  unit.abbrev: "µg/mL"
  val: 0.391
- compound: "CC(=O)N(O)CCO/N=C(\\C(=O)N[C@@H]1C(=O)N2C(C(=O)[O-])=C(C[n+]3ccccc3)CS[C@H]12)c1csc(N)n1"
  unit.abbrev: "µg/mL"
  val: 0.391
